All figures here come from patent US20250059174A1.

Biological target: Recombinant human c-KIT kinase (Homo sapiens (Human), UniProt P10721)
Sequence (P10721 26-976): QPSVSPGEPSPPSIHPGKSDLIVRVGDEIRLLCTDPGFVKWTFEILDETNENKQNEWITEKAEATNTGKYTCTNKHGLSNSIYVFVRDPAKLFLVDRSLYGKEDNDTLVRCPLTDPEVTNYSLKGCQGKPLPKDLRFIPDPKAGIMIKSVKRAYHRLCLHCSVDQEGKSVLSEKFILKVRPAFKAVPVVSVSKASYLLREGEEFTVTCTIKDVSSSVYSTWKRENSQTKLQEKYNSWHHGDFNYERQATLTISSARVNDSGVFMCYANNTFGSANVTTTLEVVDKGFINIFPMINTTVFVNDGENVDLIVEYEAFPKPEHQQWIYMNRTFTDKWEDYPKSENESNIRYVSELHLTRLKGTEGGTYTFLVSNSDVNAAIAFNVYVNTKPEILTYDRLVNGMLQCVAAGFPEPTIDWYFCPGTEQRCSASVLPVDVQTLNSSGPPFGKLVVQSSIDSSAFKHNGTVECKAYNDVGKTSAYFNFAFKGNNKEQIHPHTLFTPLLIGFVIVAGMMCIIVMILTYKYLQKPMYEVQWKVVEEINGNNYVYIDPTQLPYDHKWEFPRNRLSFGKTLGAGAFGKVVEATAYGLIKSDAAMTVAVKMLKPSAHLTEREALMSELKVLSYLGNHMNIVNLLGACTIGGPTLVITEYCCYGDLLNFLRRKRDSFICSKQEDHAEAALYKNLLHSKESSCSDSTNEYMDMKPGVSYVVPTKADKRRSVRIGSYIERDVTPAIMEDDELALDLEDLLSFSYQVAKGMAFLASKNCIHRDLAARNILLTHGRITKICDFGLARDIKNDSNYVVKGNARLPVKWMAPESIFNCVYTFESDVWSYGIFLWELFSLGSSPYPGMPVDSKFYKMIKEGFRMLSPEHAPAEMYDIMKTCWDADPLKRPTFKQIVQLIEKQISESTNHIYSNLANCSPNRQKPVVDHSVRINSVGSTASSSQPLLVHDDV
Assay: c-KIT kinase chemiluminescence assay (ADP-Glo)
Conditions: ATP 50 μM
Some compounds, each annotated with its measured IC50.

# smiles_repr, assay_target, measurement_kind, result
rows = [
    ("[2H]C([2H])([2H])c1ccc(-c2noc([C@H]3C[C@@H]3C(F)F)n2)cc1NC(=O)c1cnn2ccc(N3CC4(COC4)C3)cc12", "Recombinant human c-KIT kinase (Homo sapiens (Human), UniProt P10721)", "IC50", "< 100 nM"),
]

For this compound ( "Cc1ccc(-c2noc(C3CN(C(=O)N(C)C4CC4)C3)n2)cc1NC(=O)c1cnn2ccc(N3CC4(COC4)C3)cc12" ), measured IC50 is 100 to 1000 nM

For this compound ( "Cc1ccc(-c2noc([C@H]3C[C@@H]3F)n2)cc1NC(=O)c1cnc(-c2ccc3c(c2)CC(=O)N3)o1" ), measured IC50 is < 100 nM

For this compound ( "Cc1ccc(-c2noc([C@H]3C[C@@H]3F)n2)cc1NC(=O)c1cnn2ncccc12" ), measured IC50 is > 1000 nM

For this compound ( "COC(=O)N1CC(c2nc(-c3ccc(C)c(NC(=O)c4cnc(-c5ccc6c(c5)CC(=O)N6)o4)c3)no2)C1" ), measured IC50 is < 100 nM

For this compound ( "Cc1ccc(-c2noc([C@H]3C[C@@H](OC(F)(F)F)C3)n2)cc1NC(=O)c1cnn2ccc(N3CC4CC(C3)O4)cc12" ), measured IC50 is < 100 nM
